Catalogue of molecules with associated inhibition at 100 µM
Target: human rChAT (Homo sapiens)
Construct: made in house; host or cells: E. coli BL21 Rosetta2
Sequence (P28329 1-630 isoform P28329-3): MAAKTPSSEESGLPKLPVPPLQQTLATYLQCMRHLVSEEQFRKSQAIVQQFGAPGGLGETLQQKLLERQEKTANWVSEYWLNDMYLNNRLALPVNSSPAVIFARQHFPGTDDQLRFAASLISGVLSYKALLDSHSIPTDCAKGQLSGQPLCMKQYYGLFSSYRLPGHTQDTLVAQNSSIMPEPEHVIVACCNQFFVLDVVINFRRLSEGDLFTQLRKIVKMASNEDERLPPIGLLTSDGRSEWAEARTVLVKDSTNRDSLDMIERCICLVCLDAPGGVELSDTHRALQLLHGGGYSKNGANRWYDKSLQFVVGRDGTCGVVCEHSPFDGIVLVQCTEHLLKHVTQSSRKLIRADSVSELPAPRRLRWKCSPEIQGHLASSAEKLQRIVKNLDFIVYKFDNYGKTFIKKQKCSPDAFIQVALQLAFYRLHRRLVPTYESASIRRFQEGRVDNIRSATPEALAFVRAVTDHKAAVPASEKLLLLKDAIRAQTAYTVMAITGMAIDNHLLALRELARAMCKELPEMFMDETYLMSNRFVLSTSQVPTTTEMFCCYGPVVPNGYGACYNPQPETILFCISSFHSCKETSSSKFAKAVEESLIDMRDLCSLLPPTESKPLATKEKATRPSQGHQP
Assay: In vitro ChAT activity inhibition fluorometric assay and kinetic studies
Format: biochemical
Conditions: 100 µM compound; compared to control; mean of three experiments in triplicate; read-out: ChAT % IR (inhibition rate)
ENDPOINT NAME: inhibition at 100 µM (%)

> print(dat)
                                    molecule         endpoint.name  unit.spec  value.measured
 1    CCOC(=O)c1sc2ncn(CCc3ccccc3)c(=O)c2c1C  inhibition at 100 µM          %             6.9
 2  CC(=O)c1ccc(NC(=O)CN2CCN(c3cccc(C)c3C)CC2)cc1 [Compound D2]  inhibition at 100 µM          %               0
 3    CCn1c(CNC(=O)COc2ccc(Cl)cc2)cc2ccccc21  inhibition at 100 µM          %               0
 4  CCc1ccccc1NC(=O)CSc1nnc(-c2cccnc2)n1CC [Compound E2]  inhibition at 100 µM          %             4.1
 5       CCn1c(CNC(=O)COc2ccccc2F)cc2ccccc21  inhibition at 100 µM          %               0
 6    Cc1ccccc1OCC(=O)Oc1ccc2c(C)cc(=O)oc2c1  inhibition at 100 µM          %             2.5
 7  COc1ccc(CC(=O)Nc2cc3oc4ccccc4c3cc2OC)cc1  inhibition at 100 µM          %               0
 8  CC1(C)CC(=O)C(=CNCC2CCN(C(=O)Cc3ccc(Cl)cc3)CC2)C(=O)C1  inhibition at 100 µM          %             2.1
 9  Cc1c(C)n(C(=O)CSc2nnc(-c3ccccc3)o2)c2ccccc12  inhibition at 100 µM          %            26.7
10  COc1cc(CN2CCN(Cc3ccccc3Cl)CC2)c([N+](=O)[O-])cc1OC  inhibition at 100 µM          %             3.5
11  COc1ccc(Cl)cc1NC(=O)CCN1CCN(c2ccccc2C)CC1  inhibition at 100 µM          %               0
12  CN(C(=O)COc1ccc(-c2nn(C)c(=O)c3ccccc23)cc1)C1CCCCC1  inhibition at 100 µM          %               0
13  COc1ccc(-c2cc(C(F)(F)F)nc(SCCC(=O)N3CCN(C)CC3)n2)cc1  inhibition at 100 µM          %             4.8
14  Cc1cccc(N2CCN(CC(=O)Nc3ccc(C)c(F)c3)CC2)c1 [Compound D1]  inhibition at 100 µM          %               0
15  CCN(CC)C(=O)c1cccc(Nc2ccc(-c3ccccc3OC)nn2)c1  inhibition at 100 µM          %               0
16  COc1ccccc1N1CCN(c2nc(-c3ccc(C)cc3)cc(=O)[nH]2)CC1  inhibition at 100 µM          %             7.6
17  C[N+](C)(C)CCC(=O)c1cccc2ccccc12.[I-] [α-NETA, reference compound]  inhibition at 100 µM          %              93
18  O=C(Nc1ccc(CN2CCOCC2)cc1)c1ccc2c(c1)[nH]c(=O)n2CCc1ccccc1  inhibition at 100 µM          %            13.3
19  Clc1cccc(N2CCN(Cc3nnn(Cc4ccco4)n3)CC2)c1  inhibition at 100 µM          %             7.2

The reported numbers originate from paper PMC5701137.
